Reported melting point values follow for various compounds
experimental-endpoint: melting point (°C)

| compound | experimental-endpoint | unit-abbreviation | recorded-value |
| --- | --- | --- | --- |
| COc1nc2ccc(Br)cc2cc1C(c1ccccc1)C(O)(CCCCN1CCC(N2CCCCC2)CC1)c1ccc2ccccc2c1 (single isomer, unassigned) | melting point | °C | 177 |
| CN1CCCN(CCCCC(O)(c2ccc3ccccc3c2)C(c2ccccc2)c2cc3cc(Br)ccc3[nH]c2=O)CC1 (single isomer, unassigned) | melting point | °C | 210 |
| COc1nc2ccc(Br)cc2cc1C(c1ccccc1)C(O)(CCCCN1CCCNCC1)c1ccc2ccccc2c1 (single isomer, unassigned) | melting point | °C | 119 |
| COc1nc2ccc(Br)cc2cc1C(c1ccccc1)C(O)(CCCCN1CCC(N2CCCCC2)CC1)CCc1ccccc1 (single isomer, unassigned) | melting point | °C | 164 |
| COc1nc2ccc(Br)cc2cc1C(c1ccccc1)C(O)(CCCCN1CC2CC1CN2CCc1ccccc1)c1ccc2ccccc2c1 (single isomer, unassigned) | melting point | °C | 137 |
